Tested on: ATP;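 note: ATP exposure 15 min at 22 °C before imaging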
assay.explanation: switch fluorescence ratio, 500 uM ATP over buffer (Cy3 cluster intensity, sum of 5 cycles each) (fold (ratio)); higher = stronger signal-on switching upon ATP binding; sequences stand for … in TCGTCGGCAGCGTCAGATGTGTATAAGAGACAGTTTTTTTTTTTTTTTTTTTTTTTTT…TC
condition.details: aptamer strand: ATP DNA aptamer (quencher-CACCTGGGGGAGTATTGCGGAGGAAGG + anchor), 100 nM annealed; ATP concentration: 500 uM
recorded.metric: switch fluorescence ratio

Challenge: Given TATCAGTTCG , state its recorded switch fluorescence ratio.
Response given: 0.996

Challenge: // switch fluorescence ratio lookup, key: GGAGCATTTT
Response given: 1.78

Challenge: What value of measured switch fluorescence ratio is listed for GACCCTAGAT ?
Response given: 1.01

Challenge: Return reported switch fluorescence ratio; argument: TTGCCGGCTC
Response given: 1.03

Challenge: Look at this sequence and give its reported switch fluorescence ratio. GAGCCCAATG
Response given: 1.01

Challenge: Item under review: TTACGTTCCT . Reported switch fluorescence ratio?
Response given: 1.5

Challenge: Could you tell me which switch fluorescence ratio is on file for AGATTGGAGG ?
Response given: 0.957

Challenge: Need switch fluorescence ratio of TTCGCTCTTT , thanks.
Response given: 1.06

Challenge: Sample TTTTCGGGGT — what was its switch fluorescence ratio?
Response given: 0.986

Challenge: Requested read-out: switch fluorescence ratio. Entry: GGTGGAAATC
Response given: 1.09

Challenge: Look up switch fluorescence ratio: TTTGTAGAAC
Response given: 1.02

Challenge: Need switch fluorescence ratio of CATGATGTTG , thanks.
Response given: 0.975

Challenge: Data request, read-out switch fluorescence ratio, for AGTTGCACGT
Response given: 0.954

Challenge: May I ask what switch fluorescence ratio has been recorded for TCAGGGGATC ?
Response given: 1.01

Challenge: Look up switch fluorescence ratio for this sequence: CAGTTTCCTC
Response given: 1.08

Challenge: Reported switch fluorescence ratio for ATAGGAAAAA : what is it?
Response given: 0.963

Challenge: Name the reported switch fluorescence ratio value associated with the sequence AGGTGCATTT
Response given: 1.08

Challenge: Recorded switch fluorescence ratio for GCCGCAGGTC , please?
Response given: 1.23

Challenge: Dear colleague, I am looking for the recorded switch fluorescence ratio of the following sequence: GCAATTAAAT
Response given: 0.996

Challenge: Recorded switch fluorescence ratio of TACGCTTAGC , please.
Response given: 1.1

====

System: ATP;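 note: ATP exposure 15 min at 22 °C before imaging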
assay.explanation: switch fluorescence ratio, 500 uM ATP over buffer (Cy3 cluster intensity, sum of 5 cycles each) (fold (ratio)); higher = stronger signal-on switching upon ATP binding; sequences stand for … in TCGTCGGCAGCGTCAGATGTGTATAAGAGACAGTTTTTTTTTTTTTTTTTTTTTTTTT…TC
condition.details: aptamer strand: ATP DNA aptamer (quencher-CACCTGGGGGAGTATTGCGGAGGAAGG + anchor), 100 nM annealed; ATP concentration: 500 uM
recorded.metric: switch fluorescence ratio
Give the figure only, with no unit attached.

Challenge: # get_value(readout='switch fluorescence ratio', item= GGGCTAGGGG )
Response given: 0.994

Challenge: Which measured switch fluorescence ratio value corresponds to ATGTGTGTTG ?
Response given: 1.04

Challenge: Which switch fluorescence ratio value belongs to GGGGGGCAAG ?
Response given: 0.986

Challenge: Give its switch fluorescence ratio value. Item: GTTTTTTAGG
Response given: 0.978

Challenge: Find the recorded switch fluorescence ratio belonging to GCATCAGGCG and report it.
Response given: 1.01

Challenge: Given the sequence CAGTGCCAGC , what is its reported switch fluorescence ratio?
Response given: 0.999

Challenge: For the sequence shown here, TATTTAGGAG , give the reported switch fluorescence ratio.
Response given: 0.999

Challenge: Given the entry ATTTTAGATG , report its measured switch fluorescence ratio.
Response given: 1

Challenge: Would you kindly share the measured switch fluorescence ratio for TAGTGTTTGT ?
Response given: 0.979

Challenge: Find the recorded switch fluorescence ratio belonging to AATATTTTGG and report it.
Response given: 1.01

Challenge: Entry ACGTAGTAAC has what switch fluorescence ratio?
Response given: 1.03

Challenge: State the recorded switch fluorescence ratio for this entry: TGCATGGTGG
Response given: 0.995

Challenge: GET /values?readout=switch fluorescence ratio&item= TCCATCGGGA
Response given: 1.14

Challenge: Record request: switch fluorescence ratio value, item AGGTGTTCCG
Response given: 1.04

Challenge: So what does the record say about switch fluorescence ratio for GATTAAATTT ?
Response given: 1.01

Challenge: What measured switch fluorescence ratio goes with ATGAAATCAG ?
Response given: 0.999

Challenge: I would be grateful if you could share the reported switch fluorescence ratio for GTTATATGGT .
Response given: 1.02

Challenge: # switch fluorescence ratio lookup, item GAAGTGCGGT
Response given: 0.985

Challenge: Fill in the blank: the reported switch fluorescence ratio of TAGTGTGGGC is ____.
Response given: 0.999

Challenge: # switch fluorescence ratio lookup, item TTTCGTACTC
Response given: 1.09

Challenge: Request the reported switch fluorescence ratio associated with TAGGTGTGTT
Response given: 0.981

Challenge: Entry under review: CGTTACTACG . Reported switch fluorescence ratio?
Response given: 1.06

Challenge: Need switch fluorescence ratio of TTTAGTATGG , thanks.
Response given: 1.02

Challenge: # get_value(readout='switch fluorescence ratio', item= TAATAGCATA )
Response given: 1.03

Challenge: Quick one: switch fluorescence ratio for TGCTTATCTA ?
Response given: 1.02

Challenge: Entry GAGTTTATGT : reported switch fluorescence ratio = ?
Response given: 1.01

Challenge: Look up switch fluorescence ratio for this sequence: CGGGTTGGTC
Response given: 1.05

Challenge: Can you share its switch fluorescence ratio? I mean this sequence: TGACTGTTTC
Response given: 1.01

Challenge: State the recorded switch fluorescence ratio for this entry: GGGCAATTGG
Response given: 0.992

Challenge: Would you mind telling me what switch fluorescence ratio value was observed for CGGCCTGATA ?
Response given: 1.01

Challenge: What value of switch fluorescence ratio has been recorded for this entry: AGTTTTATCC
Response given: 1.01

Challenge: Which switch fluorescence ratio value is on record for TTCGATATTT ?
Response given: 0.982

Challenge: // query switch fluorescence ratio value for entry TCAATCGCTT
Response given: 1.09

Challenge: Suppose we examine the sequence AACGGCCATG ; what switch fluorescence ratio value has been reported?
Response given: 1.02

Challenge: # switch fluorescence ratio lookup, item CAAAATACGG
Response given: 1.07

Challenge: Look up switch fluorescence ratio: AATATCGCGG
Response given: 1.03

Challenge: Report switch fluorescence ratio for CCTTGGTATT please.
Response given: 0.998

Challenge: Can you look up the measured switch fluorescence ratio of TCGCAGTTTC for me?
Response given: 1.7

Challenge: Which switch fluorescence ratio is listed for GGAGGCAGGG ?
Response given: 0.996

Challenge: Look up switch fluorescence ratio for this sequence: CGCTGGTTGT
Response given: 0.985

Challenge: Which measured switch fluorescence ratio value corresponds to TGAGTGAGGG ?
Response given: 1.01

Challenge: What does the data say about its switch fluorescence ratio? Entry: CTAAATATTG
Response given: 0.989

Challenge: # get_value(readout='switch fluorescence ratio', item= AGAATGCTTT )
Response given: 0.997
